Target: Melanocortin receptor 3 (Homo sapiens, UniProt P41968)
Sequence (P41968 whole entry): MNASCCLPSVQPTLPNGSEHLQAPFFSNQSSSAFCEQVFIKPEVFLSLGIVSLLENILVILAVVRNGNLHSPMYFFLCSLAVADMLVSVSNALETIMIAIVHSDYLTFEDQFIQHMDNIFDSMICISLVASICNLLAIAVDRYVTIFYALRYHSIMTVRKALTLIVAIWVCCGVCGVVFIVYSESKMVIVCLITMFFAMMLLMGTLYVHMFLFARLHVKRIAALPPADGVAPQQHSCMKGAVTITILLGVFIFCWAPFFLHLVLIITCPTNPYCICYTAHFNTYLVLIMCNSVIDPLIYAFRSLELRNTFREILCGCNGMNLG
Test: Agonist activity at human MC3R expressed in HEK293 cells assessed as maximal intracellular cAMP accumulation by fluorescence based analysis
testReadout: pEC50
One number for each entry, as −log10 of the molar value.

// for each compound below, give its pEC50
1. CCCC[C@H](NC(C)=O)C(=O)N[C@H]1CSCc2ccc(cc2)CSC(C)(C)[C@@H](C(N)=O)NC(=O)[C@H](Cc2c[nH]c3ccccc23)NC(=O)[C@H](CCCNC(=N)N)NC(=O)[C@@H](Cc2ccccc2)NC(=O)[C@H](Cc2c[nH]cn2)NC1=O
2. CCCC[C@H](NC(C)=O)C(=O)N[C@@H]1C(=O)N[C@@H](Cc2c[nH]cn2)C(=O)N[C@H](Cc2ccccc2)C(=O)N[C@@H](CCCNC(=N)N)C(=O)N[C@@H](Cc2c[nH]c3ccccc23)C(=O)N[C@H](C(N)=O)CSCc2cccc(c2)CSC1(C)C
3. CCCC[C@H](NC(C)=O)C(=O)N[C@H]1CSCc2cccc(c2)CSC(C)(C)[C@@H](C(N)=O)NC(=O)[C@H](Cc2c[nH]c3ccccc23)NC(=O)[C@H](CCCNC(=N)N)NC(=O)[C@@H](Cc2ccccc2)NC(=O)[C@H](Cc2c[nH]cn2)NC1=O

1. 6.61
2. 8.03
3. 6.36
